Biological target: UniProt P08253
Sequence (P08253 whole entry): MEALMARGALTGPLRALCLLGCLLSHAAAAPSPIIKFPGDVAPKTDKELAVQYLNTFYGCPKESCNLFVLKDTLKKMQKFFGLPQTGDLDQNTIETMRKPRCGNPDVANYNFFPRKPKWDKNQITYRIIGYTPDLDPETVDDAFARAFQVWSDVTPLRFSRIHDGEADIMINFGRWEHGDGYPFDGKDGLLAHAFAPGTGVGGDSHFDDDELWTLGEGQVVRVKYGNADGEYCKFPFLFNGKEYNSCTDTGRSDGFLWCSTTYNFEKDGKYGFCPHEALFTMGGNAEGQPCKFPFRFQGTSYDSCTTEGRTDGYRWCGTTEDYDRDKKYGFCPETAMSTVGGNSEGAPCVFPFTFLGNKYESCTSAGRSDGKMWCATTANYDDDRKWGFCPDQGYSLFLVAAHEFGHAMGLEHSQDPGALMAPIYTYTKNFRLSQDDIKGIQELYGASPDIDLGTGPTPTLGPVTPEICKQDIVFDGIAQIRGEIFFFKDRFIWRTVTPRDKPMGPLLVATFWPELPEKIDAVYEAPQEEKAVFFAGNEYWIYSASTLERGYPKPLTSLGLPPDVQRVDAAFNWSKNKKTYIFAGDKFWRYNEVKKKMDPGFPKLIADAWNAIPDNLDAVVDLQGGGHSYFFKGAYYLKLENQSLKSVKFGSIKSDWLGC
Assay: Dose Response validation of uHTS RPN11 inhibitor hits using a MMP-2 Fluorescence assay.
Format: functional
Activity calls are given as the source filed them.
readout.name: IC50

Below, 4 molecules whose answers are already recorded.
COc1ccccc1N1C(=O)S/C(=C\c2ccc(C)s2)C1=O
> 100 µM (inactive)
O=C(CCN1C(=O)NC2(CCCC2)C1=O)Nc1ccc(-c2nc3ccccc3s2)cc1
> 100 µM (inactive)
Cc1c2cnn(CC(=O)Nc3c(F)c(F)cc(F)c3F)c(=O)c2c(C)n1Cc1ccccc1F
> 100 µM (inactive)
CCN1CCc2c(sc(NC(=O)c3cc4ccccc4cc3OC)c2C(N)=O)C1
> 100 µM (inactive)

From here, focus on the item given below.
Known value: UniProt P08253 IC50 of the molecule "Cc1cccc(NC(=O)CNC(=O)CCc2nc3sc4c(c3c(=O)[nH]2)CCCC4)c1C" equals > 100 µM (inactive)

###

Target: Induced myeloid leukemia cell differentiation protein Mcl-1 (Homo sapiens, UniProt Q07820)
Sequence (Q07820 whole entry): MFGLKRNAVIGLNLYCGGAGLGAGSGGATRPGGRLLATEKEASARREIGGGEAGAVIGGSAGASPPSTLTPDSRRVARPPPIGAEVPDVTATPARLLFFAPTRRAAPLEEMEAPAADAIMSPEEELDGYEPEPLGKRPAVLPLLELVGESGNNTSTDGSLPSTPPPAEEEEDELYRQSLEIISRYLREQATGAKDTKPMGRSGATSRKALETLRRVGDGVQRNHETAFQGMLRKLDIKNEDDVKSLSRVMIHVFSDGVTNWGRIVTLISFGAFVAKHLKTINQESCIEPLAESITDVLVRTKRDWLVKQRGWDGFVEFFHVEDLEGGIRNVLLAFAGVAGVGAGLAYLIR
Format: functional
The source made the active and inactive calls.
Listed here: items and their measured IC50.

Below, 5 compounds whose answers are already recorded.
CC(/C=C1\SC(=S)N(c2ccc(C(=O)O)cc2)C1=O)=C\c1ccccc1
3090 nM (active)
O=C(O)c1ccc(N/N=C/c2ccc(-c3cc(Cl)ccc3Cl)o2)cc1
2170 nM (active)
O=C(NN1C(=O)/C(=C/C=C/c2ccco2)SC1=S)c1ccccc1O
2420 nM (active)
Cc1csc(NC(=O)c2cc(-c3ccco3)nc3ccccc23)n1
4030 nM (active)
COc1ccc(N2CCC(CNC(=O)Nc3cccc(OC)c3)C2)cc1 (stereo unspecified)
3180 nM (not active)

From here, focus on the item given below.
Summary for this compound, "CN(C)c1ccc(Nc2nc(N)c([N+](=O)[O-])c(N3CCOCC3)n2)cc1" : IC50 is 800 nM (active)

###

Listed here: items and their measured EC50.
Biological target: Zinc finger protein mex-5 (Caenorhabditis elegans)
Sequence (Q9XUB2 whole entry): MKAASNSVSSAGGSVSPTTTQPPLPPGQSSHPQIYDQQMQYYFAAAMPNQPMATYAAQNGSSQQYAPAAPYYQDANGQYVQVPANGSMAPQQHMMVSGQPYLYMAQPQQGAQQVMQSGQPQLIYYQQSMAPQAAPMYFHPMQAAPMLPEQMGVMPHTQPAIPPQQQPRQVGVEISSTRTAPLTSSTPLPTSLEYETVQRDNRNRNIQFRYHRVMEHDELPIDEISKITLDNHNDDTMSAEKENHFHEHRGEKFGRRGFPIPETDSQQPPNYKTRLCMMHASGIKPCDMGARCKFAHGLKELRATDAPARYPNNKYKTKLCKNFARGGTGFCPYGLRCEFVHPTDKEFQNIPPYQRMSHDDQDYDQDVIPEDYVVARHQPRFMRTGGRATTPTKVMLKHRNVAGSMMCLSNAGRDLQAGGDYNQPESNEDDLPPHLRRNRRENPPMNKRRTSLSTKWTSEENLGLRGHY
Test: potency of MEX-5 RNA-binding blockers – biochemical, C. elegans, fluorescence polarization, dose response (AID 1960)
Activity calls are given as the source filed them.

Below, 5 compounds whose answers are already recorded.
CCN1C(=O)/C(=C\N(C)C)NC1=S
154 µM (inconclusive)
Oc1ccc(CCNc2c3ccccc3nc3ccccc23)cc1O
10.1 µM (active)
Fc1ccc(CNc2nc(-c3ccccc3)nc3ccccc23)cc1
> 300 µM (not active)
CCOC(=O)c1ccc(-n2c(CCC(=O)O)ccc2-c2ccc(F)cc2)cc1
> 300 µM (not active)
O=C(N/N=C\C1C(=O)NC(=S)N(c2ccccc2)C1=O)c1ccc(O)cc1 (configuration not stated)
63.7 µM (active)

Summary for this compound, "CCOC(=O)c1cnc(-n2nc(C)cc2C)nc1NNc1nc(C)cc(C)n1" : EC50 is > 300 µM (inconclusive)

###

Listed here: items and their measured EC50.
Molecular target: Luciferin 4-monooxygenase (Photinus pyralis, UniProt P08659)
Sequence (P08659 whole entry): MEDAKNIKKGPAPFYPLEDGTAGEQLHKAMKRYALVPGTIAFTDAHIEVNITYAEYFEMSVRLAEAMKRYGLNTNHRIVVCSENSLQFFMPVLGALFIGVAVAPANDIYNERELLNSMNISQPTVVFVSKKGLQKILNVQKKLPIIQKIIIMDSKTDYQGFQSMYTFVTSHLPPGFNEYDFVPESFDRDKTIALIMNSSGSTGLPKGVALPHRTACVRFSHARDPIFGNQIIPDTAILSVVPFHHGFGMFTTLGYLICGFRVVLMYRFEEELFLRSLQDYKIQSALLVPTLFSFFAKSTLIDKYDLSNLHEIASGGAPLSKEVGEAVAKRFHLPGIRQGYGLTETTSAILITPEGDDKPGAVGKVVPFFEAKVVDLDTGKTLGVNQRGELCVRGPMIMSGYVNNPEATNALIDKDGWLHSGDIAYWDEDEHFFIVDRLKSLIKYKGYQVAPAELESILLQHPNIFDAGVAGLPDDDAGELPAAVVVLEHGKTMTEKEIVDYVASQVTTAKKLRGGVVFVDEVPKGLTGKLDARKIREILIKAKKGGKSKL
Test: inhibition of purified Photinus pyralis luciferase – biochemical, luminescence, dose response (AID 1891)
Activity calls are given as the source filed them.

Below, 5 molecules whose answers are already recorded.
c1ccc2c(C3=NN=C(NC4CC4)SC3)c[nH]c2c1
> 112 µM (not active)
CCOc1ccc(CN(CCO)CCO)cc1C(=O)OC
> 112 µM (not active)
CC(NC(=O)c1cc(S(=O)(=O)N2CCCC2)cn1C)c1ccccc1 (stereo unspecified)
> 112 µM (not active)
O=C(Nc1nc2ccccc2[nH]1)c1ccccc1F
1.19 µM (active)
O=S(=O)(Nc1ccc(-c2ccc3nncn3n2)cc1)c1cc(F)ccc1F
> 112 µM (not active)

From here, focus on the item given below.
Summary for this molecule, "COC(=O)c1ccc(N2CCN(CC(=O)c3ccc(-c4ccccc4)cc3)CC2)c([N+](=O)[O-])c1" : EC50 is > 112 µM (not active)

###

Target: Rac GTPase-activating protein 1 (Homo sapiens)
Sequence (Q9H0H5 whole entry): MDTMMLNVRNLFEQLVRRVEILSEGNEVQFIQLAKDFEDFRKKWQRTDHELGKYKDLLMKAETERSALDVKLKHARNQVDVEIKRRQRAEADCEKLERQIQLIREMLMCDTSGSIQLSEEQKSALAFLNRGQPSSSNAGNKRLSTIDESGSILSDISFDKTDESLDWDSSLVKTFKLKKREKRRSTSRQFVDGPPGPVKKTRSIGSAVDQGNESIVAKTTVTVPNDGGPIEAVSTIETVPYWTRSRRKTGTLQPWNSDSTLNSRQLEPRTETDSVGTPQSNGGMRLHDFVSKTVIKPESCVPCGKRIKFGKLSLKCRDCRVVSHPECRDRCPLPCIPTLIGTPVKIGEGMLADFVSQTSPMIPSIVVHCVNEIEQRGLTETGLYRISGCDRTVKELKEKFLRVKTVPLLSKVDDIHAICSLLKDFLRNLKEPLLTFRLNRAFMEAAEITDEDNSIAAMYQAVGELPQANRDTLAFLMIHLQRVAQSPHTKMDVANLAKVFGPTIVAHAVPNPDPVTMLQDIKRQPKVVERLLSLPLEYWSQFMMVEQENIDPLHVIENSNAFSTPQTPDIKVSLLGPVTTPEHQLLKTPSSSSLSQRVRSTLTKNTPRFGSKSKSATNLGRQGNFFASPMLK
Test: blockers of MgcRacGAP-driven Rac1 GTP hydrolysis – biochemical, ADP Hunter fluorescence, primary and confirmatory, confirmation (AID 624330)
Assay type: functional
Activity calls are given as the source filed them.
Listed here: items and their measured IC50.

Below, 5 molecules whose answers are already recorded.
Cc1ccc(NCc2ccccc2O)cc1C
118 µM (active)
COc1cc(/C=C/CN2CCN(Cc3ccc(C)o3)C(CCO)C2)ccc1O (stereo not drawn)
363 µM (active)
CCOC(=O)Nc1ccc2c(c1)Nc1ccccc1S2
45 µM (active)
Cc1cccc(CN2CCN(C(C)C(=O)NC(C)c3ccccc3)CC2)c1 (stereo not drawn)
84.2 µM (active)
Cc1sc2nc(CN3CCOCC3)nc(N3CCOCC3)c2c1C
191 µM (active)

Known value: Rac GTPase-activating protein 1 (Homo sapiens) IC50 of the molecule "C=CCc1cc(Cl)ccc1OCCN(C)C" equals 157 µM (active)

Known value: Rac GTPase-activating protein 1 (Homo sapiens) IC50 of the molecule "Cc1ccc(O)c(/N=C/c2sc3ccccc3c2Cl)c1" equals 39.2 µM (active)

Known value: Rac GTPase-activating protein 1 (Homo sapiens) IC50 of the molecule "O=C(CN1CCN(c2ccc(O)cc2)CC1)Nc1ccccc1C(=O)NCCc1ccccc1" equals 41.5 µM (active)

Known value: Rac GTPase-activating protein 1 (Homo sapiens) IC50 of the molecule O=C1c2ccccc2NC(c2ccc(O)cc2)N1/N=C/c1ccc(O)cc1 (stereo not drawn) equals 66.4 µM (active)

Known value: Rac GTPase-activating protein 1 (Homo sapiens) IC50 of the molecule "CN1C(=O)/C(=C/c2ccc(C(=O)Nc3ccc(O)cc3C(=O)O)cc2)SC1=S" equals 55.1 µM (active)

Known value: Rac GTPase-activating protein 1 (Homo sapiens) IC50 of the molecule OC(CON=C1c2ccccc2-c2ccccc21)CN1CCNCC1 (stereo not drawn) equals 62.7 µM (active)

Known value: Rac GTPase-activating protein 1 (Homo sapiens) IC50 of the molecule "COc1ccc(OC)c2c(C)c(C)[nH]c12" equals 29.5 µM (active)

Known value: Rac GTPase-activating protein 1 (Homo sapiens) IC50 of the molecule "Cc1nc(C/C(=N\N)c2ccc(O)cc2O)cs1" equals 64 µM (active)

Known value: Rac GTPase-activating protein 1 (Homo sapiens) IC50 of the molecule "Cc1n[nH]c(-c2ccc(O)c(C)c2O)c1-c1cnn(-c2ccccc2)c1" equals 85.8 µM (active)

Known value: Rac GTPase-activating protein 1 (Homo sapiens) IC50 of the molecule "O=C(NC(=S)N1CCN(c2ccc(O)cc2)CC1)c1ccco1" equals 33.1 µM (active)

Known value: Rac GTPase-activating protein 1 (Homo sapiens) IC50 of the molecule CC(C)C1N=C2c3ccccc3N=C(SCC(=O)c3ccc(O)c(O)c3)N2C1=O (stereo not drawn) equals 26.1 µM (active)

Known value: Rac GTPase-activating protein 1 (Homo sapiens) IC50 of the molecule "COc1ccc(N[C@@H]2CCN3C(=O)c4ccccc4[C@@H]3C[C@H]2O)cc1" equals 74.8 µM (active)

Known value: Rac GTPase-activating protein 1 (Homo sapiens) IC50 of the molecule "CCN(CC)c1ccc(/C=C2/C(=O)NC(=O)N(Cc3ccco3)C2=O)cc1" equals 126 µM (active)

###

Listed here: items and their measured EC50.
Experiment: Luminescence Cell-Based Dose Confirmation HTS to Identify Activators of 5'UTR Stem-Loop Driven Alpha-Synuclein mRNA Translation in H4 Neuroglioblastoma Cells. [Related pubchem assays: 1829 (Project Summary), 1814 (Primary HTS)]
Format: functional
The source made the active and inactive calls.

Below, 3 molecules whose answers are already recorded.
CCOc1ccc(-c2nc(C)c(C(C)=O)n2O)cc1
14.1 µM (active)
COc1cccc(NC(=S)N/N=C2/CCCCc3ccccc32)c1
7.09 µM (active)
O=C(Nc1ccccc1O)c1ccc(NS(=O)(=O)c2cccc3cccnc23)cc1
11.2 µM (active)

From here, focus on the item given below.
Summary for this molecule, "COc1ccc(-c2nn(-c3ccccc3)cc2/C=N/NC(=O)c2ccc3c(c2)OCO3)cc1" : EC50 is 18.3 µM (active)

###

Biological target: Alkaline phosphatase, tissue-nonspecific isozyme (Homo sapiens, UniProt P05186)
Sequence (P05186 whole entry): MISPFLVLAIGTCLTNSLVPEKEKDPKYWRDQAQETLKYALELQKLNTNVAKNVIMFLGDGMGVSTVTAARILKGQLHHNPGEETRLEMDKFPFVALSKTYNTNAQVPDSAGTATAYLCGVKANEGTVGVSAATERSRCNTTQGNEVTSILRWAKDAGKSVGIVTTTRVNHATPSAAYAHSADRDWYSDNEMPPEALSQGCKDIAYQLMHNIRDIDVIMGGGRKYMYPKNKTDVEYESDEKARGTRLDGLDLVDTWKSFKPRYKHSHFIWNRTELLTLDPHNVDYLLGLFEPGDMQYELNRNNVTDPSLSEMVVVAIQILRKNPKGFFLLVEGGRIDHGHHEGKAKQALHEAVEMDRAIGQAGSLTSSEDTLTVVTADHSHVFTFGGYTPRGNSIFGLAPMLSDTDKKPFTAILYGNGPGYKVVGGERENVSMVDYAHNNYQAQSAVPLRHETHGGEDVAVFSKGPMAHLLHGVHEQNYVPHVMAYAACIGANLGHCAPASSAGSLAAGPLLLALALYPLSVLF
Experiment: potency against alkaline phosphatase TNAP – biochemical, luminescent, dose response, SAR follow-up (AID 1056)
Calls of active or inactive are those of the source.
Return exactly one item of active, inactive

CCCCN1C(=O)/C(=N\Nc2ccccc2Cl)c2ccccc21
inactive

## Task Any idea what this test logged for "O=C(CSc1nc2ccccc2[nH]1)c1ccc(O)c(O)c1" ?
## Result active

## Task Any idea what this test logged for "COc1ccc(-c2cc(C(=O)O)n[nH]2)cc1" ?
## Result active

## Task Any idea what this test logged for "COc1cccc(Cc2nnc(N3C(=O)[C@H]4CC=CC[C@H]4C3=O)[nH]2)c1" ?
## Result active

## Task Any idea what this test logged for "O=C(O)c1cc(-c2ccc(O)cc2)n[nH]1" ?
## Result active

Data provenance: ChEMBL document CHEMBL1201862
